Target or test system: T1, human Jagged-1 (human, UniProt P78504 34-1067, limits assumed)
T1 construct: also called hJag-1; hJAG1
Protocol notes: binding ELISA, coated hJagged-1
Reported endpoint: binding result

1. DLLBII133A09 (VHH, not shown: C-terminal c-myc tag and (His)6 tag) VHH: EVQLVESGGGLVQPGGSLRLSCAASGFTFGSYDMSWVRRSPGKGPEWVSAINSGGGSTYYADYVKGRFTISRDNAKNTLYLQMNSLKPEDTAVYYCAADRYIWARQGEYWGAYAYDYWGQGTQVTVSS; no binding
2. DLLBII129D08 (VHH, not shown: C-terminal c-myc tag and (His)6 tag) VHH: EVQLVESGGGLVQAGGSLRLSCAASGRTFSSYAMAWYRQAPGKEREYVAAIRWSGGTAYYADSVQGRFTISRDNAKNTVYLQMNSLKPEDTAVYYCANRAPDTRLEPYLYDYWGQGTQVTVSS; no binding

Just for reference, patent US20130078247A1 is where these values come from.
